Provide the reported pIC50 of each item.
# subject of test: C-Raf FL (full length CRAF with Y340E and Y341E activating mutations, co-expressed with h14-3-3 zeta) (Homo sapiens (Human), UniProt P04049, Y340E/Y341E)
# Sequence (P04049 whole entry Y340E/Y341E): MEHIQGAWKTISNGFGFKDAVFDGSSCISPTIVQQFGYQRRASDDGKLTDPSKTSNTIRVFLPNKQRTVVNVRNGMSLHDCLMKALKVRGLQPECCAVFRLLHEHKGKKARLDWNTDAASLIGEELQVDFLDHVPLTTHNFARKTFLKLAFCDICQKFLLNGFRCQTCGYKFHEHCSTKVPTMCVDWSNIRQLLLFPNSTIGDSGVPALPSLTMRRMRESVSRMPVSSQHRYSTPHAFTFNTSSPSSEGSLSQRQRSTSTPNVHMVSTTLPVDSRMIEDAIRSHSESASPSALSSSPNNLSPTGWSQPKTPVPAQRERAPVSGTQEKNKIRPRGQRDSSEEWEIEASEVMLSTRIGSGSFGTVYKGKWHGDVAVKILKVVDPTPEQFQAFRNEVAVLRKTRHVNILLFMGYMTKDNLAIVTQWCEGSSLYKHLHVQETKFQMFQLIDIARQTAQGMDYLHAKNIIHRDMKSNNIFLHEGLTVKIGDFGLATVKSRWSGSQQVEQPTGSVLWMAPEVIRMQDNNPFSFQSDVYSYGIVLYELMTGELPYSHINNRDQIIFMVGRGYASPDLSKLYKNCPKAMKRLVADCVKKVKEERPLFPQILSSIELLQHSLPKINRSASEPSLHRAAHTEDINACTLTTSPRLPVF
# Sequence (P63104 whole entry partner): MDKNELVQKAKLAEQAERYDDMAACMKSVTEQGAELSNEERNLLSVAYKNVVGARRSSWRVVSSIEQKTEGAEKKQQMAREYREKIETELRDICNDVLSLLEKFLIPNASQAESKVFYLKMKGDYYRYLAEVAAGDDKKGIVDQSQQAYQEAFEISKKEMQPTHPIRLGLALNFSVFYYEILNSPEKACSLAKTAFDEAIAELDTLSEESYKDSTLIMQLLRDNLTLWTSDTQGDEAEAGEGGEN
# assay overview: In vitro Raf activity determination, AlphaScreen p-MEK readout, c-Raf (C-Raf FL)
# condition context: c-Raf approximately 4 nM, ATP 1 μM, pre-incubation 60 minutes, reaction 1 hour
Answers are plain numbers, as −log10 of the molar value.

Use these answered entries as a reference point.
Cc1ccc(NC(=O)c2ccnc(C(F)(F)F)c2)cc1-c1cnc2c(c1)N1CCOC[C@@H]1C[C@@H]2OCCO	9.70
Cc1ccc(NC(=O)c2ccnc(C(F)(F)F)c2)cc1-c1cnc2c(c1)N1CCOC[C@@H]1[C@H](CO)C2	10.00
Cc1ccc(NC(=O)c2ccnc(C(C)(F)F)c2)cc1-c1cnc2c(c1)[C@@H]1CCOC[C@H]1C(=O)N2CC(C)(C)O	9.70

Below: the item to evaluate.
Name the recorded pIC50 for "Cc1ccc(NC(=O)c2cc(Cl)nc(C(F)(F)F)c2)cc1-c1ccc2c(c1)N1CCOC[C@H]1[C@](F)(CO)C2" .
8.17
